TEST SYSTEM: UspA2 (ubiquitous surface protein A2), displayed on E. coli BL21(DE3) (Moraxella catarrhalis Bc5)
PROTOCOL NOTES: fluorescence cell-binding titration (eluted FAM-aptamer)
pKd: −log10 of the molar value.
EXPERIMENTAL READOUT: pKd

biosequence="GGGCCACCAACGACATTGCGGCAGCCACCCAACGACCACGCTCATCCTCCTCCCCCGCACCGTCCCATGCTGCGTCACTCTGGAT [FAM-Apt1_RC]" result_value=8.47
biosequence="ATCCAGAGTGACGCAGCATGGGACGGTGCGGGGGAGGAGGATGAGCGTGGTCGTTGGGTGGCTGCCGCAATGTCGTTGGTGGCCC [FAM-Apt1]" result_value=6.67
